Tested on: Monilinia fructicola
method notes: Antifungal activity against Monilinia fructicola on potato sucrose agar medium at 28 or 20 degC for 2 or 3 days
Format: functional
Form field: MIC (one value per entry).

### Prompt Report measured MIC; entry is CC(C)[C@H]1CC[C@@H](Cc2ccc(Cl)cc2)[C@]1(O)Cn1cncn1
### Response < 0.2 µg/mL

### Prompt Annotate the molecule CC(C)[C@@H]1CC[C@@H](Cc2ccc(Cl)cc2)[C@]1(O)Cn1cncn1 with its measured MIC.
### Response < 0.2 µg/mL

### Prompt Assign MIC to the following record: CC(C)C[C@@H]1CC[C@H](Cc2ccc(Cl)cc2)[C@@]1(O)Cn1cncn1
### Response 3.1 µg/mL

### Prompt Return MIC (reported value) for this molecule: CC(C)[C@H]1CC[C@H](Cc2ccc(Cl)cc2)[C@@]1(O)Cn1cncn1
### Response < 0.2 µg/mL

### Prompt Please indicate MIC recorded for C[C@@H]1CC[C@H](Cc2ccc(Cl)cc2)[C@@]1(O)Cn1cncn1
### Response < 0.2 µg/mL

* * *

We begin with a simple list: items and their reported Activity.
System: Cucumis sativus
method notes: Inhibition of Cucumis sativus (cucumber) growth assessed as stem length of first leaf of seedlings measured as growth rate at 125 ug/ml for 24 hr relative to control
Format: functional
Design: scale not given: the % may be the effect or the level left
All answers are understood in %, so give the number only.

### Prompt Tell us which Activity value is on record for CCC[C@@H]1CC[C@H](Cc2ccc(Cl)cc2)[C@@]1(O)Cn1cncn1
### Response 110

### Prompt For the compound CC[C@H]1CC[C@@H](Cc2ccc(Cl)cc2)[C@]1(O)Cn1cncn1 , give its measured Activity value.
### Response 98

### Prompt State, in one line, measured Activity of O[C@@]1(Cn2cncn2)CCC[C@H]1Cc1ccc(Cl)cc1
### Response 90

### Prompt # return recorded Activity for input CC[C@H]1CC[C@H](Cc2ccc(Cl)cc2)[C@@]1(O)Cn1cncn1
### Response 123

* * *

System: Sclerotinia sclerotiorum
method notes: Antifungal activity against Sclerotinia sclerotiorum on potato sucrose agar medium at 28 or 20 degC for 2 or 3 days
Type: functional
outcome measure: MIC (µg/mL)
Write the value in µg/mL as a bare number.

The examples below pair each entry with its known result.
CC(C)[C@H]1CC[C@H](Cc2ccc(Cl)cc2)[C@@]1(O)Cn1cncn1 :: 0.8
CC[C@@H]1CC[C@H](Cc2ccc(Cl)cc2)[C@@]1(O)Cn1cncn1 :: 0.8
CC[C@@H]1CC[C@@H](Cc2ccc(Cl)cc2)[C@]1(O)Cn1cncn1 :: 25
CC[C@H]1CC[C@@H](Cc2ccc(Cl)cc2)[C@]1(O)Cn1cncn1 :: 100
CCCC[C@@H]1CC[C@H](Cc2ccc(Cl)cc2)[C@@]1(O)Cn1cncn1 :: 3.1

Next compound, MIC to be filled in.
### Prompt Hello, please tell me recorded MIC for this one: C[C@@H]1CC[C@H](Cc2ccc(Cl)cc2)[C@@]1(O)Cn1cncn1
### Response 3.1

* * *

Tested on: Monilinia fructicola
method notes: Antifungal activity against Monilinia fructicola on potato sucrose agar medium at 28 or 20 degC for 2 or 3 days
Format: functional
outcome measure: MIC (µg/mL)
Write the answer as a number in µg/mL, unit excluded.

CC[C@H]1CC[C@@H](Cc2ccc(Cl)cc2)[C@]1(O)Cn1cncn1 :: 1.6

Now for another entry.
### Prompt Write down measured MIC (Monilinia fructicola) for this compound. O[C@@]1(Cn2cncn2)CCC[C@H]1Cc1ccc(Cl)cc1
### Response 13
